B1: Pistol ribozyme (parent)
chain: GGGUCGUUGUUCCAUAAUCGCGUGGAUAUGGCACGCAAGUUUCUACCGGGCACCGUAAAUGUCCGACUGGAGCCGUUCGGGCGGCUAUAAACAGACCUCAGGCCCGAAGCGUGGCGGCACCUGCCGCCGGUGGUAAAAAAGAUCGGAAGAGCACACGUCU

Variants of: B1
test_description: aptazyme ON/OFF ratio, guanine; higher = stronger switching; co-transcriptional cleavage with and without guanine
Listing of recorded aptazyme ON/OFF ratio by entry.
attribute_measured: aptazyme ON/OFF ratio

> print(dat)
                     residue.change     attribute.measured  quantitative.result
 1           U7C U8G U10A U11C C12U  aptazyme ON/OFF ratio                 1.04
 2  U7C U8C G9A U10C U11C C12U C13G  aptazyme ON/OFF ratio                 1.24
 3           U7G G9C U11G C12A C13U  aptazyme ON/OFF ratio                 1.47
 4       U7C U8A G9U U10C U11C C12U  aptazyme ON/OFF ratio                 1.08
 5       U7A U8A G9A U10A U11G C12A  aptazyme ON/OFF ratio                 1.04
 6           U7A U8A U10C U11C C12U  aptazyme ON/OFF ratio                 1.07
 7            U7G U8A G9U U11G C13A  aptazyme ON/OFF ratio                 1.07
 8           U8C G9C U11A C12G C13U  aptazyme ON/OFF ratio                 1.07
 9       U7A U8G G9A U10G C12G C13G  aptazyme ON/OFF ratio                 1.17
10            U7A U8G G9A U10A C13U  aptazyme ON/OFF ratio                 1.26
11       U7C U8A G9A U11A C12A C13A  aptazyme ON/OFF ratio                 1.17
12       U7G U8C G9A U10G U11C C12U  aptazyme ON/OFF ratio                 1.09
13       U7G U8C G9A U11G C12A C13G  aptazyme ON/OFF ratio                  1.1
14       U7G U8C G9C U10A U11A C12A  aptazyme ON/OFF ratio                 1.19
15           U7C G9U U10A C12U C13A  aptazyme ON/OFF ratio                 1.15
16            U7G U8C G9A C12U C13U  aptazyme ON/OFF ratio                 1.03
17      U7C G9U U10G U11G C12G C13U  aptazyme ON/OFF ratio                 1.08
18  U7C U8A G9A U10A U11C C12G C13A  aptazyme ON/OFF ratio                 1.14
19            U7C U8G G9A C12A C13G  aptazyme ON/OFF ratio                 1.16
20               U8G U10C U11G C12A  aptazyme ON/OFF ratio                 1.35
21           U7A G9C U10C U11A C13G  aptazyme ON/OFF ratio                 1.12
22              U10G U11G C12A C13G  aptazyme ON/OFF ratio                 1.11
23            U7C U8A G9A U10C U11A  aptazyme ON/OFF ratio                 1.23
24                U7G G9A U11A C13A  aptazyme ON/OFF ratio                 1.14
25               U7G U11C C12U C13A  aptazyme ON/OFF ratio                 1.13
26           U7A G9C U10C U11G C13U  aptazyme ON/OFF ratio                 1.08
27           U8A G9U U10G U11C C12A  aptazyme ON/OFF ratio                 1.04
28           U7C U8C U10G U11G C13A  aptazyme ON/OFF ratio                 1.24
29      U7G G9A U10C U11G C12A C13U  aptazyme ON/OFF ratio                 1.11
30                        U10C C12A  aptazyme ON/OFF ratio                 1.51
31            U7A U8C G9U C12G C13G  aptazyme ON/OFF ratio                 1.16
32                        U10G C12U  aptazyme ON/OFF ratio                 1.58
33  U7G U8G G9U U10C U11G C12U C13U  aptazyme ON/OFF ratio                  1.4
34                 U7A U8G G9C U10G  aptazyme ON/OFF ratio                 1.46
35       U7A U8G G9C U11A C12A C13G  aptazyme ON/OFF ratio                 1.37
36                U7C G9A C12G C13G  aptazyme ON/OFF ratio                  1.2
37       U7C U8G G9U U10A U11C C13G  aptazyme ON/OFF ratio                 1.05
38                     U8C G9U C13G  aptazyme ON/OFF ratio                 1.03
39  U7C U8C G9U U10A U11A C12U C13G  aptazyme ON/OFF ratio                 1.14
40      U8G G9C U10A U11C C12A C13G  aptazyme ON/OFF ratio                 1.07
41       U7G U8G G9A U10A C12A C13G  aptazyme ON/OFF ratio                 1.04
42       U7A U8A G9U U10C C12U C13G  aptazyme ON/OFF ratio                 1.15
43            U7G U8C G9C U10C C13A  aptazyme ON/OFF ratio                 1.06
44      U7G U8A U10A U11A C12G C13U  aptazyme ON/OFF ratio                 1.46
45                 U7A U8G G9U U11G  aptazyme ON/OFF ratio                 1.94
46           U7G U8A U10G U11A C13G  aptazyme ON/OFF ratio                 1.23
47          U8C U10A U11C C12G C13A  aptazyme ON/OFF ratio                 1.16
48           U7C G9C U10C U11A C12A  aptazyme ON/OFF ratio                 1.09
49           U7A U8A U10C C12G C13U  aptazyme ON/OFF ratio                 1.26
50                U8A G9U U11G C13G  aptazyme ON/OFF ratio                 1.08
51           U8A G9U U11C C12A C13U  aptazyme ON/OFF ratio                 1.11
52      U7A U8A U10G U11G C12U C13U  aptazyme ON/OFF ratio                 1.27
53            U7G U8A G9C U10C C12U  aptazyme ON/OFF ratio                 1.06
54  U7G U8C G9A U10C U11A C12G C13G  aptazyme ON/OFF ratio                 1.21
55       U7C U8G G9A U10C C12G C13U  aptazyme ON/OFF ratio                 1.31
56  U7C U8G G9U U10A U11G C12A C13G  aptazyme ON/OFF ratio                 1.14
57      U7C G9U U10G U11G C12G C13A  aptazyme ON/OFF ratio                 1.13
58  U7C U8A G9A U10G U11C C12U C13A  aptazyme ON/OFF ratio                 1.15
59  U7G U8C G9C U10G U11C C12A C13U  aptazyme ON/OFF ratio                 1.36
60                U7G U8C U11G C12A  aptazyme ON/OFF ratio                 1.14
61           U7A G9C U10G U11G C12G  aptazyme ON/OFF ratio                 1.16
62                U8A G9A U10A C13G  aptazyme ON/OFF ratio                  1.1
63       U7C U8A G9C U11G C12U C13G  aptazyme ON/OFF ratio                 1.14
64          U7A U10G U11G C12A C13U  aptazyme ON/OFF ratio                 1.22
65          U7A U10G U11A C12G C13G  aptazyme ON/OFF ratio                 1.17
66      U8C G9U U10C U11A C12G C13G  aptazyme ON/OFF ratio                 1.11
67       U7C U8C G9U U10A U11C C13A  aptazyme ON/OFF ratio                 1.15
68  U7G U8A G9A U10C U11G C12U C13U  aptazyme ON/OFF ratio                 1.12
69            U7G U8G G9C U10A C13A  aptazyme ON/OFF ratio                 1.05
70       U7C U8A G9U U10C U11G C12U  aptazyme ON/OFF ratio                 1.21
71      U7C G9C U10G U11C C12A C13U  aptazyme ON/OFF ratio                 1.11
72           U7A U8A U11G C12U C13A  aptazyme ON/OFF ratio                  1.2
73      U7G U8C U10C U11G C12A C13U  aptazyme ON/OFF ratio                 1.29
74  U7C U8G G9U U10A U11G C12A C13A  aptazyme ON/OFF ratio                 1.11
75  U7G U8G G9C U10C U11G C12U C13U  aptazyme ON/OFF ratio                 1.22
76                U8G G9U C12G C13U  aptazyme ON/OFF ratio                 1.31
77            U7A U8G G9U U10G C12U  aptazyme ON/OFF ratio                 1.28
78            U7A U8C G9C U11A C13G  aptazyme ON/OFF ratio                 1.07
79           U7C U8G U10C U11G C13A  aptazyme ON/OFF ratio                 1.39
80       U7A U8A G9U U10A C12A C13U  aptazyme ON/OFF ratio                 1.15
81                 U7A U8A G9C C13A  aptazyme ON/OFF ratio                 1.15
